target: α4β1 integrin (Homo sapiens (Human), UniProt P05556+P13612); assay: Integrin Adhesion Assay: Protocol 5 (VCAM-coated plate, RPMI-8866 cells with stable LOF mutation of the ITGB7 gene); assay type: cell-based; details: Protocol 5; RPMI-8866 cells with LOF mutation of ITGB7, VCAM; read-out: Mean IC50 α4β1 KO
Sequence (P13612 34-1032): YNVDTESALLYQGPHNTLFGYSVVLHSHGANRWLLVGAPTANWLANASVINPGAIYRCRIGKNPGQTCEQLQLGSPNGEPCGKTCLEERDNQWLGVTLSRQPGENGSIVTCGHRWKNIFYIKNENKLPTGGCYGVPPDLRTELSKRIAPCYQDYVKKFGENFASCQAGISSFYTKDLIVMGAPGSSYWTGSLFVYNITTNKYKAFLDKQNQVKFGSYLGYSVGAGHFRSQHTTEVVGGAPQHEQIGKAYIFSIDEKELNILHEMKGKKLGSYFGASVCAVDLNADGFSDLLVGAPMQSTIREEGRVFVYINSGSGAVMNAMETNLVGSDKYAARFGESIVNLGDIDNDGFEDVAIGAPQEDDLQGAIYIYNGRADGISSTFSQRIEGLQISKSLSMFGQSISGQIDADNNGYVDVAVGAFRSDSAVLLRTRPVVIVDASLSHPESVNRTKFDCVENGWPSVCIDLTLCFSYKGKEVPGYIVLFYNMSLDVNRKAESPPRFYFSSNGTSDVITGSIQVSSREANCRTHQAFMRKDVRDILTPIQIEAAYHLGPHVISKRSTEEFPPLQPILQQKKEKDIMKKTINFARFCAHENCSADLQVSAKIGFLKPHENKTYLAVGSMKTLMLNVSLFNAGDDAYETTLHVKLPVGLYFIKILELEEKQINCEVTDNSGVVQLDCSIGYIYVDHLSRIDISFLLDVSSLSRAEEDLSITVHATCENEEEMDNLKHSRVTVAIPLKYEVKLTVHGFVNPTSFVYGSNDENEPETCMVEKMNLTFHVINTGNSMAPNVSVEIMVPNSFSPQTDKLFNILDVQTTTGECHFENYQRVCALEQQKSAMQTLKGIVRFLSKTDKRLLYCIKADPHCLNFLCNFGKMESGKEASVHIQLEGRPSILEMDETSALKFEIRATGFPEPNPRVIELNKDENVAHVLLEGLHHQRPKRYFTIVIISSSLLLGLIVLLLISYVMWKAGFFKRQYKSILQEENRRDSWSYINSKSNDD
Sequence (P05556 21-798): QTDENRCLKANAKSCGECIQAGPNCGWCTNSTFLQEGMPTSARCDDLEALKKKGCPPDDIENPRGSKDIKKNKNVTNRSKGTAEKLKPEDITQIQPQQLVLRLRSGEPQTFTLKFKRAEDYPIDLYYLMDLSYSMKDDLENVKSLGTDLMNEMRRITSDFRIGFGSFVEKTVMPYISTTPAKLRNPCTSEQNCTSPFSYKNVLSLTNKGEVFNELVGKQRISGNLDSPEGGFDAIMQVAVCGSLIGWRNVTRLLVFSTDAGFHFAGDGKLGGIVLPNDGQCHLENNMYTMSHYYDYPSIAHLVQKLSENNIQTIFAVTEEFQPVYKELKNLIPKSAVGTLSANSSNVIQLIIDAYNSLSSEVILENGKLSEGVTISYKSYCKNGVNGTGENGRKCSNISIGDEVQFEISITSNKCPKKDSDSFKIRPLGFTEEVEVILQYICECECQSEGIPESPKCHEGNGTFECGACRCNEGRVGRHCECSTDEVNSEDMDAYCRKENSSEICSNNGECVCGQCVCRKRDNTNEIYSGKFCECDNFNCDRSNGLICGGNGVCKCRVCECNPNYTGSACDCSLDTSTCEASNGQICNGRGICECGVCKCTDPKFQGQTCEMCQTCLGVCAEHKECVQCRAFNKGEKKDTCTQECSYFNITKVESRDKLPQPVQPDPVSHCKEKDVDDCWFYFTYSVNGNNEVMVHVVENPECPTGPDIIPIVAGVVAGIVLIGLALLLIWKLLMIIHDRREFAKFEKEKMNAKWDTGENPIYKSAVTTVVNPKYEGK
pIC50: −log10 of the molar value.
Readout Label: pIC50

What value of measured pIC50 is listed for COc1ccc(CN2CCCCC2)nc1-c1cccc2c(C[C@H](NC(=O)C3(C(F)(F)F)CCN(CC(F)(F)F)CC3)C(=O)O)cccc12 ?
< 6.00

Please give the result for CC1CCN(Cc2ccc3c(c2)c(C(F)(F)F)c(-c2cccc4c(C[C@H](NC(=O)C5(C(F)(F)F)CCN(CC(F)(F)F)CC5)C(=O)O)cccc24)c(=O)n3C)CCC1(F)F (stereo partly drawn) too.
6.00 to 7.00

Can you handle O=C(O)[C@H](Cc1cccc2c(-c3ncc(CN4CCC5(CCCCC5)CC4)c4ccccc34)cccc12)NC(=O)C1(C(F)(F)F)CCN(CC(F)(F)F)CC1 next?
< 6.00

Same again, this time with CC(C)Oc1cc(CN2CCCCC2)cnc1-c1cccc2c(C[C@H](NC(=O)C3(C(F)(F)F)CCN(CC(F)(F)F)CC3)C(=O)O)cccc12
6.00 to 7.00

Field entry: COc1cccc(CN2CCC(C)(C)CC2)c1-c1cccc2c(C[C@H](NC(=O)C3(C(F)(F)F)CCN(CC(F)(F)F)CC3)C(=O)O)cccc12
< 6.00

Now the same for O=C(O)[C@H](Cc1cccc2c(-c3cc(C(F)(F)F)c(CN4CCCCC4)cn3)cccc12)NC(=O)C1(C(F)(F)F)CCN(CC(F)(F)F)CC1
< 6.00

###

target: α4β1 integrin (Homo sapiens (Human), UniProt P05556+P13612); assay: Integrin Adhesion Assay: Protocol 5 (VCAM-coated plate, RPMI-8866 cells with stable LOF mutation of the ITGB7 gene); type: cell-based; conditions: Protocol 5; RPMI-8866 cells with LOF mutation of ITGB7, VCAM; read-out: Mean IC50 α4β1 KO
pIC50: −log10 of the molar value.
Readout Label: pIC50

For the compound shown here, CN(C)Cc1ccc2c(c1)c(C(F)(F)F)c(-c1cccc3c(C[C@H](NC(=O)C4(C(F)(F)F)CCN(CC(F)(F)F)CC4)C(=O)O)cccc13)c(=O)n2C [Compound 696] , give the reported pIC50.
7.00 to 8.00

Entry COc1ccc(CN2CCCC2)c(OC)c1-c1cccc2c(C[C@H](NC(=O)C3(C(F)(F)F)CCN(CC(F)(F)F)CC3)C(=O)O)cccc12 [Compound 782] please
6.00 to 7.00

Try the compound O=C(O)[C@H](Cc1cccc2c(-c3ncc(CN4CCCCC4)c4c3CCCC4)cccc12)NC(=O)C1(C(F)(F)F)CCN(CC(F)(F)F)CC1 [Compound 746]
< 6.00

Can you check CN(C)CCc1ccc2c(c1)c(C(F)(F)F)c(-c1cccc3c(C[C@H](NC(=O)c4c(F)cc(N5CCOC[C@@H]5C(F)(F)F)cc4F)C(=O)O)cccc13)c(=O)n2C [Compound 708] next?
6.00 to 7.00

Ok, now CC(C)(C)C1CCN(CCc2cnc(-c3cccc4c(C[C@H](NC(=O)C5(C(F)(F)F)CCN(CC(F)(F)F)CC5)C(=O)O)cccc34)c3ccccc23)CC1 [Compound 981]
< 6.00

Now consider CC1(C)CCCN(Cc2cnc(-c3cccc4c(C[C@H](NC(=O)C5(C(F)(F)F)CCN(CC(F)F)CC5)C(=O)O)cccc34)c3ccccc23)CC1 [Compound 916] .
6.00 to 7.00
